- Test system: M19-MEL
- protocol: NCI tumour cell line growth inhibition, 48 h
Activity calls are given as the source filed them. Rule as the data show it: active = GI50 up to about 1.1 µM and inactive = higher.
Outcome (select one): Yes (active), No (inactive)

Would you please look over these solved cases?
CCOC(=O)CNC(=O)OCc1ccccc1: No
COC(=O)C12C3C4C1C1C2C3C41I (stereo not drawn): No
O=C1c2ccccc2C2C1N2C(=O)C(F)(F)F (stereo not drawn): No
O=C1Nc2cc([N+](=O)[O-])c(Br)cc2C1=O: No
CC[C@]12C=CCN3CCC4(c5cc([C@@]6(C(=O)OC)CC7CN(CCc8c6[nH]c6ccccc86)C[C@@H]6CCC[C@H]76)c(OC)cc5N(C)C4[C@](O)(C(=O)OC)C1OC(C)=O)C32 (stereo partly drawn): Yes
O=c1cc(-c2ccccc2)oc2cc(OCCCCCCCCCCOc3ccc4c(=O)cc(-c5ccccc5)oc4c3)ccc12: No
COC(=O)CC1NC(=O)C1C(C)(OC)OC (stereo not drawn): No
O=C(Nc1c(O)[nH]c(=S)[nH]c1=O)c1ccc2ccccc2n1: No

### Prompt Lab log entry: `N#C/C(=C\c1ccncc1)c1csc2ccccc12` — outcome as called in the assay?
### Response No

### Prompt Lab log entry: O=C1OC2(CC1C1(O)C3CC4CC(C3)CC1C4)C1CC3CC(C1)CC2C3 (stereo not drawn) — outcome as called in the assay?
### Response No

### Prompt Lab log entry: CCc1cc(Cc2cc(Cl)c(NC(=O)C(=O)C3NC(=O)NC3=O)c(CC)c2)cc(Cl)c1NC(=O)C(=O)C1NC(=O)NC1=O (stereo not drawn) — outcome as called in the assay?
### Response No

### Prompt Lab log entry: O=C(CC1(O)C(=O)Nc2ccccc21)c1ccc(O)cc1O (stereo not drawn) — outcome as called in the assay?
### Response No

### Prompt Lab log entry: `O=S1(=O)COc2ccccc2-c2ncncc21` — outcome as called in the assay?
### Response No

### Prompt Lab log entry: CN1N=C2c3ccccc3CC[C@H]2C1c1cccc(O)c1 (stereo partly drawn) — outcome as called in the assay?
### Response No

====

# maps each entry to its GI50
- Tested on: UACC-257
- protocol: NCI tumour cell line growth inhibition, 48 h
Activity calls are given as the source filed them. No stated cut-off is given here; in the data, active = GI50 up to about 1.1 µM and inactive = higher.

Guide cases for GI50, answers given:
C[C@H](NC1=CC(=O)C(N[C@@H](C)[C@H](O)c2ccccc2)=CC1=O)[C@H](O)c1ccccc1: > 100 µM (inactive)
Cc1ccc(NP(=O)(Oc2ccccc2)N(CCCl)CCCl)cc1 (stereo unspecified): 28.6 µM (inactive)
COC(=O)CC1N/C(=N\C#N)N(CCc2c[nH]c3ccccc23)C1=O (stereo unspecified): > 100 µM (inactive)

### Prompt Please give the measured GI50 for this compound: `Fc1c(F)c(C(F)(F)F)c(F)c(F)c1N/N=C/c1cn(Cc2ccccc2)c2ccccc12`
### Response 21.5 µM (inactive)

### Prompt Please give the measured GI50 for this compound: `CCc1nc(N)nc(N)c1-c1ccc(NC)c([N+](=O)[O-])c1`
### Response 18 µM (inactive)

### Prompt Please give the measured GI50 for this compound: COc1cccc2c1C(=O)c1c(O)c3c(c(O)c1C2=O)C[C@@](O)(C(=O)CO)CC3OC1CC(N)C(OC2CCCCO2)C(C)O1 (stereo partly specified)
### Response 1.17 µM (inactive)

### Prompt Please give the measured GI50 for this compound: `CN(C(=O)c1ccccc1)c1ccc2c(c1)C(=O)c1ccccc1C2=O`
### Response > 100 µM (inactive)

Values compiled from ChEMBL document CHEMBL1201862.
